# System: DU-145 prostate
# protocol: NCI-60 one-dose screen, 48 h
# settings: 10 µM unless noted
This is part of a sample that, as a whole, favours compounds with a hit. Of some 83,000 tested, about 20% had one in any assay. Active and inactive are the calls of the source. The calls were made as follows: active = growth percent below 10; inactive = the rest.
Possible outcomes: 1 (active), -1 (inactive)

[[record]]
compound = "C=C1CC2(OC1=O)C(=O)N(C)c1ccc(I)cc12 (centres undefined)"
labelclass = 1

[[record]]
compound = "COc1cc(C(=O)O)c(O)c(C(C)(C)C)c1"
labelclass = -1

[[record]]
compound = "CN(C)c1ccc2c(N(C)C)cc(N(C)C)nc2c1"
labelclass = -1

[[record]]
compound = "CN(C)c1ccc2nc3ccc(=[N+](C)C)cc-3oc2c1"
labelclass = -1

[[record]]
compound = "Cc1ccc2nc(N)nnc2c1"
labelclass = -1

[[record]]
compound = "C1CCc2onc(-c3noc4c3CCCCC4)c2CC1"
labelclass = -1

[[record]]
compound = "CCNC(=O)Oc1ccc[nH]c1=O"
labelclass = -1

[[record]]
compound = "NS(=O)(=O)c1cc(=O)[nH]c(=O)[nH]1"
labelclass = -1

[[record]]
compound = "CCOC(=O)c1ccc(NC(C)=O)o1"
labelclass = -1

[[record]]
compound = "CCOC(=O)CNC"
labelclass = -1

[[record]]
compound = "O=C(O)c1cccc(-n2ncc(Cl)c(Cl)c2=O)c1"
labelclass = -1

[[record]]
compound = "N#Cc1ccc(OC(=O)Nc2cc(Cl)cc(Cl)c2)cc1"
labelclass = -1

[[record]]
compound = "C=CC(=O)OC1CCC(C(C)(C)CC)CC1 (centres undefined)"
labelclass = -1

[[record]]
compound = "Cc1ccc(C)c2c1CCC2=O"
labelclass = -1

[[record]]
compound = "Cc1[nH]nc(C(N)=O)c1[N+](=O)[O-]"
labelclass = -1

[[record]]
compound = "C=CCC(OC(C)=O)c1ccc(OC)c(OC)c1 (centres undefined)"
labelclass = -1

[[record]]
compound = "COc1ccc(-c2csc(NC(=O)Nc3nc(-c4ccc(OC)cc4)cs3)n2)cc1"
labelclass = -1

[[record]]
compound = "O=S(Cc1ccccc1)/C(=C/NC(=S)Nc1cc(Cl)ccc1Cl)c1ccccc1 (centres undefined)"
labelclass = -1

[[record]]
compound = "NC(=S)N/N=C/c1ccc(Cl)cc1"
labelclass = -1

[[record]]
compound = "c1ccc(Oc2c3ccccc3nc3ccccc23)cc1"
labelclass = 1

[[record]]
compound = "Cc1cccc(C)c1NC(=S)/N=C\\c1c(O)[nH]c(=O)[nH]c1=O"
labelclass = -1

[[record]]
compound = "CCNC(=O)OCCc1c2ccccc2nc2ccccc12"
labelclass = -1

[[record]]
compound = "CCN(CC)c1ccc2nc3ccc(N=Nc4ccc(N(C)C)cc4)cc3[n+](-c3ccccc3)c2c1"
labelclass = 1

[[record]]
compound = "Cn1c(=O)c2[nH]c(CCCCC(=O)O)nc2n(C)c1=O"
labelclass = -1

[[record]]
compound = "CC1(C)CCC(C)(C)NC(=S)N1"
labelclass = -1

[[record]]
compound = "OCC1OC(n2ccc3c2ncn2ncnc32)C(O)C1O (centres undefined)"
labelclass = -1

[[record]]
compound = "S=C=Nc1ccc2ccccc2c1"
labelclass = -1

[[record]]
compound = "COc1cc(C(=O)N2CCN(c3ccccc3)CC2)c2ccccc2n1"
labelclass = 1

[[record]]
compound = "O=[N+]([O-])c1ccc2[nH]c(=S)n(/C=C(/c3ccc(Cl)cc3Cl)S(=O)(=O)Cc3ccc(Cl)cc3Cl)c2c1"
labelclass = -1

[[record]]
compound = "Cc1cc(=O)n(Nc2ccccc2)c(O)c1C#N"
labelclass = -1

[[record]]
compound = "COc1cc(OC)c2cc(C(=O)c3ccc(C#N)cc3)c(=O)oc2c1"
labelclass = -1

[[record]]
compound = "Cc1ccc(NC(=O)c2ccccc2Cl)cc1"
labelclass = -1

[[record]]
compound = "COC(=O)c1ccccc1C(=O)c1c(C)cc(C)cc1C"
labelclass = -1

[[record]]
compound = "COC(=O)c1ccc([N+](=O)[O-])c(C)c1"
labelclass = -1

[[record]]
compound = "CCC(/C=C\\C(C)=O)CC"
labelclass = -1

[[record]]
compound = "CNc1ccccc1C(N)=O"
labelclass = -1

[[record]]
compound = "O=C(NC(=S)N1CC=CCC1)c1ccccc1"
labelclass = -1

[[record]]
compound = "CCNCC(C)(C)O"
labelclass = -1

[[record]]
compound = "COc1ccc(/C=N/NC(=O)COCC(=O)N/N=C/c2ccc(OC)cc2)cc1"
labelclass = -1

[[record]]
compound = "Cc1cccc(-[n+]2noc(N)n2)c1"
labelclass = -1

[[record]]
compound = "Nc1ccc2c(c1)Cc1cc(N)c(N)cc1-2"
labelclass = -1

[[record]]
compound = "O=[N+]([O-])c1c(O)c(CNCCCO)cc(CNCCCO)c1O"
labelclass = -1

[[record]]
compound = "COCC(N)=O"
labelclass = -1

[[record]]
compound = "N#Cc1ccc(OC(=O)Nc2c(Cl)cc(Cl)cc2Cl)cc1"
labelclass = -1

[[record]]
compound = "O=C(CCCl)OCCOc1ccccc1"
labelclass = -1

[[record]]
compound = "C=C(c1ccc(N(C)C)cc1)c1ccc(N(C)C)cc1"
labelclass = -1

[[record]]
compound = "Cn1c2ccccc2c2nnc(NCCCCO)nc21"
labelclass = -1

[[record]]
compound = "COc1ccc(Br)c2c1C(=O)CC2"
labelclass = -1

[[record]]
compound = "Cc1ccc(O)c(N)c1"
labelclass = -1

[[record]]
compound = "CC(=O)/C(C)=N\\OC(=O)Nc1ccccc1"
labelclass = -1

[[record]]
compound = "OCCOc1ccc(-c2cc(-c3ccccn3)nc(-c3ccccn3)c2)cc1"
labelclass = 1

[[record]]
compound = "COC1OC(C(O)C(O)CO)C(O)C(O)C1O (centres undefined)"
labelclass = -1

[[record]]
compound = "Nc1ccc2ccccc2c1-c1c(N)ccc2ccccc12"
labelclass = -1

[[record]]
compound = "CC1=CC(=Nc2ccc(N(C)C)cc2)C=C(C)C1=O"
labelclass = -1

